experiment summary: reduction of polyQ htt aggregates in cells – imaging, exon1htt(103Q)mCFP cells, high-content imaging, primary screen (AID 483);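 note: compound exposure lasted 3 days before fixation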
experimental setup: exon1htt(103Q)mCFP cell line, aggregate imaging, at 2 µM; stronger effect = higher value
readout label: inhibition of aggregation (%)

1) Cc1c(Cl)cccc1NC(=O)CCN1CCCCC1 | -7.5
2) Cc1cc(C(=O)COC(=O)c2n[nH]c3ccccc23)c(C)n1C | -0.6
3) COc1ccc(N(C)C(=O)CCS(=O)(=O)c2cccc3nonc23)cc1 | 0.8
4) CCOC(=O)C1=C(CC)Nc2ccccc2N=C1NC(=O)Cn1cnc2ccccc2c1=O | 6.9
5) CCOc1ccccc1C1CC(=O)NC(SCC)=C1C#N (stereo unspecified) | 18.7
6) CCOC(=O)c1oc2cc(OCC(N)=O)ccc2c(=O)c1-c1ccc(OC)c(OC)c1 | -10.4
7) COc1cc(-c2nc(S(=O)(=O)c3ccc(C)cc3)c(N(C)C)o2)cc(OC)c1OC | -5.1
8) c1ccc(-c2cn3c4c(sc3n2)CCCC4)cc1 | 40
9) COc1ccc(CC(=O)Nc2c3c(nn2-c2cccc(Cl)c2)CS(=O)(=O)C3)cc1 | -2.4
10) Cc1ccc(S(=O)(=O)CCc2nnc(NC(=O)c3cnccn3)s2)cc1 | -22.9
11) COc1cc(CO)cc(-c2cc(CO)cc(OC)c2OC)c1OC | 19.5

* * *

target desc: Voltage-gated potassium channel subunit beta-2 (Rattus norvegicus) (UniProt P62483)
Sequence (P62483 whole entry, looked up): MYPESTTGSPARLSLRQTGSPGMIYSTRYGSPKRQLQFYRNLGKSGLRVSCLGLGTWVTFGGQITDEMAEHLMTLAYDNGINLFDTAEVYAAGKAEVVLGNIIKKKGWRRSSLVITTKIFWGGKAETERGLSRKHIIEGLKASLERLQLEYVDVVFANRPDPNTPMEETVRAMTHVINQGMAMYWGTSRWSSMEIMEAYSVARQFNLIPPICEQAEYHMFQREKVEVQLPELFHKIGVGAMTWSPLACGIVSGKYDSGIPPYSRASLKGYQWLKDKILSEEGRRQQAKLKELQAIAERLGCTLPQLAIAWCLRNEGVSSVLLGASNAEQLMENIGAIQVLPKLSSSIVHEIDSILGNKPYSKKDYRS
experiment summary: enhancers of rat Kvbeta2 NADPH turnover – biochemical, NADPH fluorescence, primary screen (AID 623);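 note: fluorescence intensity change per second fitted from 20 to 320 s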
experimental setup: Recombinant KvBeta, NADPH fluorescence decrease slope, 10 min; at 10 µM; stronger effect = lower value
readout label: NADPH fluorescence slope

1) COc1cc2c(cc1OC)-c1cc(OCc3cccnc3)nc(=O)n1CC2 | -1.1e-05
2) COc1ccc(S(=O)(=O)Nc2cccc(C)n2)c2ccccc12 | 2.4e-05
3) COc1ccc(NC(=O)c2oc3ccccc3c2NC(=O)c2ccco2)cc1 | 2.7e-05
4) Cn1c(=O)c2c(nc(SCCCO)n2Cc2ccccc2Cl)n(C)c1=O | 3e-05
5) Cc1ccc(S(=O)(=O)Cn2nnnc2CN(Cc2ccco2)Cc2cccs2)cc1 | -4.2e-05
6) O=S(CC(O)COCc1ccc(Cl)cc1)c1ccccn1 (stereo unspecified) | 6.3e-05
7) C=CCn1c(=O)c2ccccc2n2c(SC(C)C(=O)Nc3nc(-c4ccccc4)cs3)nnc12 (stereo unspecified) | -2.2e-05
8) Cc1cc(-c2ccccc2)nc(SCc2ccc(C(=O)O)o2)n1 | -6.9e-05
9) CC(OC(=O)c1cccc(NS(C)(=O)=O)c1)C(=O)Nc1ccc(N2CCOCC2)cc1 (stereo unspecified) | -3.1e-05
10) CCC(C)NC(=O)CS(=O)(=O)Cc1nc(-c2cccc(OC)c2)oc1C (stereo unspecified) | 2.7e-05
11) COc1cc(C2C(C#N)=C(C)NC3=C2C(=O)CC(C)(C)C3)ccc1O (stereo unspecified) | -2e-05

* * *

experiment summary: inhibitors of TNFa-induced NFkB p65 translocation, primary screen, imaging, HUVEC, MLSMR starter and 10KST1 sets (AID 438);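 note: compound added about 3h40 before a 20 min TNFalpha stimulation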
experimental setup: HUVEC TNFa-induced p65 nuclear translocation; measured here: nuclei count (cytotoxicity indicator), at 2.08 µM
In this scheme, each record receives a class according to its cell count; the ranges are lower (below 400), middle (400 to below 600), upper (600 or more)

1) O=C(COC(=O)c1ccccc1C(=O)c1ccccc1)c1ccco1 | lower
2) CCOC(=O)N1CCN(Cc2nc3c(c(=O)[nH]c(=O)n3C)n2Cc2cc(C)ccc2C)CC1 | upper
3) CCOc1ccc2[nH]c(O)c(NC(C)=O)c2c1 | upper
4) CCOc1ccc(C(=O)N(Cc2ccc(N(C)C)cc2)C2CCS(=O)(=O)C2)cc1 (configuration not stated) | lower
5) CCN(CC)S(=O)(=O)c1ccc(N2CCCC2)c(C(=O)OCC(=O)/C(C#N)=C(\C)N)c1 | middle
6) O=C(Cn1[nH]c(=O)c2ccccc2c1=O)OCC(=O)N1CCCc2ccccc21 | lower
7) COc1cc(C(=O)OCc2cc3ccccc3[nH]c2=O)cc(OC)c1OC | upper
8) c1ccc(CSCc2cn3ccsc3n2)cc1 | upper
9) O=c1c2ccc(-c3nnc4n3-c3ccccc3SC4)cc2nc2n1CCCCC2 | middle
10) CC(=O)Nc1c(O)[nH]c2ccccc12 | middle
11) COCCn1nnnc1C(c1ccc(OC)cc1)N1CCN(c2ccccc2F)CC1 (configuration not stated) | middle
12) CCOC(=O)C1CCN(CC(=O)Nc2c(C(=O)OC)[nH]c3ccc(Cl)cc23)CC1 | lower
13) CC(=O)Nc1ccccc1OCC(=O)c1cc(C)n(Cc2cccs2)c1C | middle
14) COc1ccc(NS(=O)(=O)c2coc(C(N)=O)c2)cc1Cl | upper
15) Cc1ccc(CNC(=O)C2CCN(S(=O)(=O)c3cccs3)CC2)o1 | lower
16) C/C(Cl)=C\Cn1c(Nc2ccc(C)cc2)nc2c1c(=O)n(C)c(=O)n2C | middle
17) CC(C)(C)OC(=O)NC(CCNC=C1C(=O)OC(C)(C)OC1=O)C(=O)O (configuration not stated) | lower
18) Cc1nc(SCc2ccc(Br)cc2)[nH]c(=O)c1C | upper

* * *

experiment summary: reduction of polyQ htt aggregates in cells – imaging, exon1htt(103Q)mCFP cells, high-content imaging, primary screen (AID 483);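 note: compound exposure lasted 3 days before fixation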
experimental setup: exon1htt(103Q)mCFP cell line, aggregate imaging, at 2 µM; stronger effect = higher value
Measured inhibition of aggregation values are reported for all entries that follow.
readout label: inhibition of aggregation (%)

1. CSc1nc2c(ccc3ccccc32)o1 | -4.8
2. CCOC(=O)c1[nH]c(C)c(C(=O)Nc2ccc(C)c(Cl)c2)c1C | -3.4
3. CC(C)N(C(=O)COC(=O)c1ccc(O)cc1)C(C)C | 12.6
4. CC(=O)Oc1ccc(CCC(C)OC(C)=O)cc1 (stereo unspecified) | -2.2
5. CC(Oc1ccc(Br)cc1)C(=O)N1CCc2ccccc21 (stereo unspecified) | 22.4
6. CCCCOc1ccc(-c2ncc(C(=O)OCC)c(N)n2)cc1 | 16.9
7. Cc1cc(C(=O)Cn2cncn2)c(C)n1CCc1ccc(F)cc1 | 0.8
8. CCCCc1nc2ccccc2n2cc3c(=O)n(C)c(=O)n(C)c3c12 | -29.8
9. Cc1ccc(C)c(N2CCN(C(=O)c3ccc(CS(=O)(=O)c4ccccc4C)o3)CC2)c1 | 12.7
10. CC(=O)NC1=NC(=O)/C(=C/N2CCCCC2)S1 | 1.3
11. O=C(Cn1nnc(-c2cccs2)n1)OC1CCCCC1 | -0.1
12. COc1ccc(-c2cn3c(C)c(C(=O)Nc4cc(NC(C)=O)ccc4OC)sc3n2)cc1 | -40.3
13. Cc1cnc(C(=O)Nc2ccccc2-n2cccc2)cn1 | -9.1
14. CC(OC(=O)c1ccco1)C(=O)NCc1cccs1 (stereo unspecified) | 7.4
15. COc1ccccc1N(CC(=O)NC1CCCC1)C(=O)c1csnn1 | 10.7
16. Cc1cc2ncn(S(=O)(=O)c3ccc(S(=O)(=O)N4CCOCC4)cc3)c2cc1C | 0.7
17. CCCN1CCN(CCCNC(=O)Cn2nc(-c3ccc(Cl)cc3)ccc2=O)CC1 | 0.1
18. CCOC(=O)C(NC(=O)CC)(Nc1ccc(S(=O)(=O)Nc2onc(C)c2C)cc1)C(F)(F)F (stereo unspecified) | 0.6
19. Cc1cc(NC(=O)CCC(=O)N(CCc2ccccc2)C(C(=O)NC2CCCC2)c2ccco2)no1 (stereo unspecified) | -11.5
20. O=C1C2C3C=CC(C3)C2C(=O)N1CNc1ccc(O)cc1 (stereo unspecified) | -9.8
21. c1ccc(-c2cc(CSc3nc4ccccc4[nH]3)on2)cc1 | -43
22. COc1cccc(S(=O)(=O)Nc2cccnc2)c1 | -31.5
23. Cc1nc(SCc2ccc(Br)cc2)[nH]c(=O)c1C | -11.8
24. O=C(Nc1ccc(F)cc1F)NC1CC(=O)N(Cc2ccccc2)C1 (stereo unspecified) | 22.4
25. CCOC(=O)c1cc(-c2nnc(-c3ccc(Oc4ccccc4)cc3)o2)c(C)nc1C | 17.5
26. COc1ccc(N2CCN(C(=O)CSc3ccccc3)CC2)cc1 | 1.5
27. CC(=O)c1c(C)[nH]c(C(=O)NC2=NCCS2)c1C | 15.8
28. CCC(=O)N1CCN(c2nc(-c3ccccc3)c3c(c2C#N)CCCC3)CC1 | 0.7
29. Cc1cccc(-n2ncc3c(N)ncnc32)c1 | -51.6
30. COc1ncnc2c1N=C1CC(C)(C)CC(N)=C1S2 | -0.2
31. COc1ccccc1OCc1ccc(C(=O)NC(C)(C)C)o1 | 0.6
32. Cc1cc(C)n(-c2nc3ccccc3c(=O)n2OCCOc2ccccc2)n1 | -7.8
33. Cc1ccc(C(=O)OCC(=O)Nc2ccc3c(c2)OCO3)o1 | 17.6
34. O=C(c1nn2cccnc2c1Cl)N1CCN(c2ccccc2)CC1 | -7.7
35. COc1cccc(Nc2nnc(SCC(=O)N3CC(C)OC(C)C3)s2)c1 (stereo unspecified) | 14.5
36. COC(=O)C1=CN(C(C)C)C=C(C(=O)OC)C1c1cc2c(cc1Br)OCO2 | 10.8
37. O=C(O)CCC(=O)NC1CCCCC1NC(=O)CCC(=O)O (stereo unspecified) | -8.6
38. N#CC1=C(N)SC(N)=C(C#N)C1CCc1ccccc1 | -16.8
39. CCn1c(SCC(=O)Nc2ccccc2N2CCCCC2)nc2c1c(=O)n(C)c(=O)n2C | 19.9
40. CCOC(=O)N1CCC(N2C(=O)c3ccccc3C2Nc2cccnc2)CC1 (stereo unspecified) | -28.1
41. CNC(=O)CSc1nnc(-c2cccc(S(=O)(=O)N3CCOCC3)c2)n1-c1ccc(F)cc1 | 13.2
42. CCOC(=O)c1nnc2cc(-c3ccc(Br)cc3)nn2c1C | -4.4
43. Cc1ccc2c(c1C)NC(C(=O)O)C1CC=CC21 (stereo unspecified) | -10.5
44. Cc1c(C(=O)O)sc2nc3n(c(=O)c12)CCC(C)CC3 (stereo unspecified) | -7.7
45. CCOC(=O)C(C)C1(O)c2ccccc2-c2ncccc21 (stereo unspecified) | -6.7
46. CCOc1ccccc1N(CC(=O)N1CCCCCC1)S(C)(=O)=O | -1.2
